Where do the numbers come from? From patent US20250018014A1.

Target: T1, C-terminal domain-deleted human Regnase-1 (amino acids 1 to 546) with N-terminal FLAG tag and C-terminal BirA … (human, UniProt Q5D1E8 1-546)
T1 sequence: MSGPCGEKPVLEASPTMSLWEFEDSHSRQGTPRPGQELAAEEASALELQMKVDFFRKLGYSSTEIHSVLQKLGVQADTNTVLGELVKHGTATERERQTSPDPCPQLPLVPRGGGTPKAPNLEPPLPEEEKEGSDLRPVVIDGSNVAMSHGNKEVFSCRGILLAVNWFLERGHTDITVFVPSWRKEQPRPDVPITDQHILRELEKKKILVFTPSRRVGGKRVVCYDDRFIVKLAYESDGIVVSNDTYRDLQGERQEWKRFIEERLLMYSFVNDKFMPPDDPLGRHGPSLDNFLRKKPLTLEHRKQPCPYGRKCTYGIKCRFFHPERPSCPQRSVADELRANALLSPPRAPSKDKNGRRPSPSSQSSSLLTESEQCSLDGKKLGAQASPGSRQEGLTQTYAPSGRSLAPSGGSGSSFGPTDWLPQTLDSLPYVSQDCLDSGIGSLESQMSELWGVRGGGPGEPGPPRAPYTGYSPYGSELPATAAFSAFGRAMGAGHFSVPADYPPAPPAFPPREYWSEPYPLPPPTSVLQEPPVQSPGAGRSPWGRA
Test: cell-based or functional assay
Positions of bridges follow the written chain, without caps; N, C: chain ends. Non-standard residues stand in square brackets, D forms with d. *: point of attachment. Pyrrolidide = C1CCN(*)C1; dNMeA = CN[C@H](C)C(=O)O
Cut-off 20 µM on 50% inhibition concentration, Regnase-1 phosphorylation by IKKβ (AlphaScreen), inclusive. At or above means satisfied; below means not satisfied.

Some entries whose results are on file:
Binder	Label
XNFSNSWYNIWD (HELM PEPTIDE1{[meA].N.F.S.N.S.W.Y.N.I.W.D.[C1CCN([*:1])C1]}$PEPTIDE1,PEPTIDE1,1:R1-12:R3$$$V2.0; SMILES CC[C@H](C)[C@@H]1NC(=O)[C@H](CC(N)=O)NC(=O)[C@H](Cc2ccc(O)cc2)NC(=O)[C@H](Cc2c[nH]c3ccccc23)NC(=O)[C@H](CO)NC(=O)[C@H](CC(N)=O)NC(=O)[C@H](CO)NC(=O)[C@H](Cc2ccccc2)NC(=O)[C@H](CC(N)=O)NC(=O)[C@H](C)N(C)C(=O)C[C@@H](C(=O)N2CCCC2)NC(=O)[C@H](Cc2c[nH]c3ccccc23)NC1=O) [PP16]	satisfied
[dNMeA]TYGHSSWYKIWD-Pyrrolidide (lactam N-13) [PP9]	not satisfied
[dNMeA]PTSSWYKIWD-Pyrrolidide (lactam N-11) [PP23]	satisfied

Say whether XGYANSWYNIWD (HELM PEPTIDE1{[meA].G.Y.A.N.S.W.Y.N.I.W.D.[C1CCN([*:1])C1]}$PEPTIDE1,PEPTIDE1,1:R1-12:R3$$$V2.0; SMILES CC[C@H](C)[C@@H]1NC(=O)[C@H](CC(N)=O)NC(=O)[C@H](Cc2ccc(O)cc2)NC(=O)[C@H](Cc2c[nH]c3ccccc23)NC(=O)[C@H](CO)NC(=O)[C@H](CC(N)=O)NC(=O)[C@H](C)NC(=O)[C@H](Cc2ccc(O)cc2)NC(=O)CNC(=O)[C@H](C)N(C)C(=O)C[C@@H](C(=O)N2CCCC2)NC(=O)[C@H](Cc2c[nH]c3ccccc23)NC1=O) [PP2] shows 50% inhibition concentration, Regnase-1 phosphorylation by IKKβ (AlphaScreen) of 20 µM or more.
not satisfied

How about XKFAQFRWIYPD (HELM PEPTIDE1{[meA].K.F.A.Q.F.R.W.I.Y.P.D.[C1CCN([*:1])C1]}$PEPTIDE1,PEPTIDE1,1:R1-12:R3$$$V2.0; SMILES CC[C@H](C)[C@@H]1NC(=O)[C@H](Cc2c[nH]c3ccccc23)NC(=O)[C@H](CCCNC(=N)N)NC(=O)[C@H](Cc2ccccc2)NC(=O)[C@H](CCC(N)=O)NC(=O)[C@H](C)NC(=O)[C@H](Cc2ccccc2)NC(=O)[C@H](CCCCN)NC(=O)[C@H](C)N(C)C(=O)C[C@@H](C(=O)N2CCCC2)NC(=O)[C@@H]2CCCN2C(=O)[C@H](Cc2ccc(O)cc2)NC1=O) [PP11] ?
satisfied

Moving on to XRFGVWSWIYPD (HELM PEPTIDE1{[meA].R.F.G.V.W.S.W.I.Y.P.D.[C1CCN([*:1])C1]}$PEPTIDE1,PEPTIDE1,1:R1-12:R3$$$V2.0; SMILES CC[C@H](C)[C@@H]1NC(=O)[C@H](Cc2c[nH]c3ccccc23)NC(=O)[C@H](CO)NC(=O)[C@H](Cc2c[nH]c3ccccc23)NC(=O)[C@H](C(C)C)NC(=O)CNC(=O)[C@H](Cc2ccccc2)NC(=O)[C@H](CCCNC(=N)N)NC(=O)[C@H](C)N(C)C(=O)C[C@@H](C(=O)N2CCCC2)NC(=O)[C@@H]2CCCN2C(=O)[C@H](Cc2ccc(O)cc2)NC1=O) [PP14]
not satisfied

Let us now turn to [dNMeA]EDTPEDDHD-Pyrrolidide (lactam N-10) [PP25]
satisfied
